Reported Enzyme Activity Endpoint Assay: scIgG by item:
system: pooled human IgG (human IgG1,2,3 and 4)
measured-quantity: Enzyme Activity Endpoint Assay: scIgG (ng/µL)

{"protein": "PRT-478 (protein) MITSVWTKGVTPPTDFIYGEDVLHAPYKAGQGWYDITKAFDGGDDLLCGAATAGNMLHWWFDQNKEQIENYLKKHPEKQKINFNGEQMFDVKEAIDTKDSQTNSELFNYFKEKAFPYLSTKHLGVFPDHVIDMFINGYRLSLTNHGPTPVKRQEKDPRGGIFDAVFGRGDQTKLLTNRHDFKEKTLNEISQLIKQELTEGKALGISHTYANVRINHVINLWGADFDAEGNLEAIYVTDSDSNASIGMKKYFVGVNSNGKVAISAKEIEEDNIGAQVLGLFTLSTGQKIWNKTNLEHHHHHH", "readout-number": 362}
{"protein": "PRT-103 (protein) MANQEIRYSEVTPYHVTSVWTKGVTPPAKFTQGEDVFHAPYVANQGWYDITKTFNGKDDLLCGAATAGNMLHWWFDQNKEKIEAYLKKHPDKQKIMFGDQELLDVRKVINTKGSQTNSELFNYFRDKAFPGLSARRIGVMPDLVLDMFINGYYLNVYKTQTTDVNRTYQEKDRRGGIFDAVFTRGDQSKLLTSRHDFKEKNLKEISDLIKKELTEGKALGLSHTYANVRINHVINLWGADFDSNGNLKAIYVTDSDSNASIGMKKYFVGVNSAGKVAISAKEIKEDNIGAQVLGLFTLSTGQDSWNQTN", "readout-number": 0}

Where do the numbers come from? From patent US20250027068.
